Test: in vivo
Details: Yorkshire, pig
property-label: half-life (h)

> print(dat)
                                   compound  property.label  value.observed
1  O=C(C1CCCCC1)N1CC(=O)N2CCc3ccccc3C2C1 (stereo not shown) [praziquantel control, Praziquantel]       half-life             1.3

* * *

Experiment: in vivo
Conditions: Yorkshire, pig
property-label: AUC (ng·h/mL)

> print(dat)
                                   compound  result.unit  value.observed
1  O=C(C1CCCCC1)N1CC(=O)N2CCc3ccccc3C2C1 (stereo not shown) [praziquantel control, Praziquantel]      ng·h/mL             222
